pIC50: −log10 of the molar value.
Hi, quick share: literature pIC50 data for Oxytocin receptor (Homo sapiens, UniProt P30559), several sources combined.
Sequence (P30559 whole entry): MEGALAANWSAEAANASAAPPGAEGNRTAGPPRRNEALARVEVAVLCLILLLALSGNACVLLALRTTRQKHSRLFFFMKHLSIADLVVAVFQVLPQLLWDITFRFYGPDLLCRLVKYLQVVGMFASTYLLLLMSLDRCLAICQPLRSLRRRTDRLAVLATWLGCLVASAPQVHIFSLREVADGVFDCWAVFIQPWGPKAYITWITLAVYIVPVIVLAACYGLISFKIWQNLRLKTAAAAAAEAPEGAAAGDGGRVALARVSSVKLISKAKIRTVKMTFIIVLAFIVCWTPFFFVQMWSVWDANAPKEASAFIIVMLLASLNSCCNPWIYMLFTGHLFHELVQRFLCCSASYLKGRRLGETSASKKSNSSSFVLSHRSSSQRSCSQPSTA
Please mark TRUE if the recorded pIC50 is equal to or greater than 8, and FALSE if it falls below.

Here's what some known entries look like.
O=C(c1ccc2n1Cc1ccccc1N(C(=O)c1ccc(C3CCCCC3)cc1)C2)N1CCN(c2ncccn2)CC1
FALSE
Cc1cc(C(=O)N2Cc3cccn3Cc3ccccc32)ccc1C1=CCCc2ccccc21
FALSE
COc1ccccc1-c1ccc(C(=O)N2Cc3ccc(C(=O)N(C)CC(O)CO)n3Cc3ccccc32)cc1C (stereo not shown)
TRUE

Test whether the compound `Cc1cc(C(=O)N2Cc3ccc(C(=O)N(C)CCN(C)C)n3Cc3ccccc32)ccc1-c1ccccc1C(F)(F)F` records pIC50 of 8 or higher.
TRUE

Test whether the compound `COc1cc(-c2ccccc2C)c(Cl)cc1C(=O)N1Cc2ccc(C(=O)N3CCCN(C)CC3)n2Cc2ccccc21` records pIC50 of 8 or higher.
TRUE

Test whether the compound `COc1cc(-c2ccccc2C)c(Cl)cc1C(=O)N1Cc2ccc(C(=O)N(C)CCCN(C)C)n2Cc2ccccc21` records pIC50 of 8 or higher.
TRUE

Test whether the compound `Cc1cc(C(=O)N2Cc3ccc(C(=O)N(C)C[C@H](O)[C@@H](O)[C@H](O)[C@H](O)CO)n3Cc3ccccc32)ccc1C1=CCCCC1` records pIC50 of 8 or higher.
TRUE

Test whether the compound `C/C(=N\C(=O)c1ccc2n1Cc1ccccc1N(C(=O)c1ccc(C3CCCCC3)cc1)C2)N(C)C` records pIC50 of 8 or higher.
TRUE

Test whether the compound `Cc1cc(C(=O)N2Cc3ccc(C(=O)N(C)Cc4ccc[n+]([O-])c4)n3Cc3ccccc32)ccc1-c1ccccc1C(F)(F)F` records pIC50 of 8 or higher.
TRUE

Test whether the compound `COc1cc(-c2ccccc2C)c(Cl)cc1C(=O)N1Cc2ccc(C(=O)N3CC[C@@H](N(C)C)C3)n2Cc2ccccc21` records pIC50 of 8 or higher.
TRUE

* * *

Hi, quick share: literature pIC50 data for Oxytocin receptor (Homo sapiens, UniProt P30559), several sources combined.
One number for each entry, as −log10 of the molar value.

Observe how each entry below is paired with its result.
COc1ccccc1-c1ccc(C(=O)N2Cc3ccc(C(=O)N4CCC(N5CCCCC5)CC4)n3Cc3ccccc32)cc1
8.17
Cc1cc(C(=O)N2Cc3ccc(C(=O)N4CCN(CCCN(C)C)CC4)n3Cc3ccccc32)ccc1-c1ccccc1C(F)(F)F
8.05
CC(=O)OCC(CN(C)C(=O)c1ccc2n1Cc1ccccc1N(C(=O)c1ccc(-c3ccccc3C(F)(F)F)c(C)c1)C2)OC(C)=O (stereo not drawn)
8.04
COc1cccc(-c2ccc(C(=O)N3Cc4ccc(C(=O)N(C)CCc5ccccn5)n4Cc4ccccc43)cc2C)c1
7.97
Cc1cc(C(=O)N2Cc3ccc(C(=O)N4CC[C@@H](N(C)C)C4)n3Cc3ccccc32)ccc1-c1ccccc1C(F)(F)F
8.20

# context switch: different compound, same pIC50
Sample `COc1ccccc1-c1ccc(C(=O)N2Cc3ccc(C(=O)N(C)Cc4cccnc4)n3Cc3ccccc32)cc1OC` — what was its pIC50?
8.20
